# Test system: HOP-92
# Assay Overview: NCI tumour cell line growth inhibition, 48 h
Active and inactive are the calls of the source. Rule as the data show it: active = GI50 up to about 1.1 µM and inactive = higher.
Parameter: GI50

Example entries and their recorded answers appear below.
Compound	Parameter	Value Reported
O=Cn1c2ccccc2c2ccccc21	GI50	> 100 µM (inactive)
O=[N+]([O-])c1cccc2c1[nH]c1c(-c3ccccc3)nccc12	GI50	0.622 µM (active)
Nc1ccc(S(=O)(=O)Nc2nc3ccccc3nc2N2CCCCC2)cc1	GI50	53 µM (inactive)

Lookup: State the recorded GI50 for this entry: "COc1ccc(C2C3=C(CCCC3=O)N(c3ccccc3)C3=C2C(=O)CCC3)cc1"
Found: 29 µM (inactive)

Lookup: State the recorded GI50 for this entry: "C[C@]12CC[C@H]3[C@@H](CCC4=CC(=O)CC[C@@H]43)[C@@H]1CC[C@@H]2OC1(O)C(=O)c2ccccc2C1=O"
Found: > 100 µM (inactive)

Lookup: State the recorded GI50 for this entry: "O=C(Cc1nc2ccc(C(=O)c3ccccc3)cc2nc1O)C(=O)Nc1ccccc1[N+](=O)[O-]"
Found: 65.9 µM (inactive)

Lookup: State the recorded GI50 for this entry: COC(=O)C(Cc1ccccc1)NC(=O)C(CCCNC(=N)N)NC(=O)OCc1ccccc1 (stereo not given)
Found: > 100 µM (inactive)

Lookup: State the recorded GI50 for this entry: "C=CCONC(=O)c1ccc(Cl)cc1"
Found: > 100 µM (inactive)

Lookup: State the recorded GI50 for this entry: "CCN(c1ccc(Br)cc1)c1c(Br)c(=O)nc2ccccn12"
Found: 57.3 µM (inactive)

Lookup: State the recorded GI50 for this entry: COc1ccc(C2SCC(=O)N2NC(=O)C(C)Oc2ccc(Cl)cc2Cl)cc1 (stereo not given)
Found: 21.1 µM (inactive)

---

# Tested on: Malme-3M
# Assay Overview: NCI tumour cell line growth inhibition, 48 h
Active and inactive are the calls of the source. Cut-off read from the data, not from the text of the source: active = GI50 up to about 1.1 µM and inactive = higher.
Your reply should match one of these outcome classes. active, inactive

Molecule	Assigned Label
c1ccc(CCNCc2ccco2)nc1	inactive
Cc1c(Cl)ccc2c1NC(=O)C2(O)CC(=O)c1ccc(Cl)cc1Cl (stereo not given)	inactive

Lookup: Could you kindly confirm the outcome this assay logged for "CC(=O)OC(C)(C)/C=C/C(=O)[C@](C)(O)[C@H]1[C@H](O)C[C@@]2(C)[C@@H]3CC=C4[C@@H](C[C@H](O)[C@H](O)C4(C)C)[C@]3(C)C(=O)C[C@]12C" ?
Found: active

Lookup: Could you kindly confirm the outcome this assay logged for "O=Cn1c2ccccc2c2ccccc21" ?
Found: inactive

Lookup: Could you kindly confirm the outcome this assay logged for "CSc1cc(Cl)c(C)cc1S(=O)(=O)NC(=O)NNc1cccc(C(F)(F)F)n1" ?
Found: inactive

---

# Test system: ACHN
# Assay Overview: NCI tumour cell line growth inhibition, 48 h
Calls of active or inactive are those of the source. Rule as the data show it: active = GI50 up to about 1.1 µM and inactive = higher.
We begin with a simple list: items and their reported GI50.

Compound	Value Reported
C/C(O)=C1\CC2CN3CCc4c([nH]c5ccccc45)C3CC2CC1=O (stereo not given)	82.8 µM (inactive)

Lookup: State the recorded GI50 for this entry: "Cc1cn([C@H]2C[C@@H](N3C(=O)c4ccccc4C3=O)[C@@H](CO[Si](C)(C)C(C)(C)C)O2)c(=O)[nH]c1=O"
Found: 62.7 µM (inactive)

Lookup: State the recorded GI50 for this entry: CC(O)(CCCCCl)c1nc2ccccc2s1 (stereo not given)
Found: > 100 µM (inactive)

Lookup: State the recorded GI50 for this entry: COC(=O)C(c1n[nH]c2ccccc12)C(C(=O)OC)c1n[nH]c2ccccc12 (stereo not given)
Found: 49.4 µM (inactive)

Lookup: State the recorded GI50 for this entry: CN(C(=O)C12C3C4C1C1C2C3C41C(=O)O)C(C)(C)C (stereo not given)
Found: > 100 µM (inactive)
